Here's what we have: pIC50 numbers for Cholinesterase (Mus musculus).
Answers are plain numbers, as −log10 of the molar value.

Answered cases to consult:
MOLECULE: COc1ccc2[nH]cc(CCCCN3CCN(c4ccc(C(=O)CCC5CCN(Cc6ccccc6)CC5)cc4)CC3)c2c1
TEST SYSTEM: Cholinesterase (Mus musculus)
Sequence (Q03311 whole entry): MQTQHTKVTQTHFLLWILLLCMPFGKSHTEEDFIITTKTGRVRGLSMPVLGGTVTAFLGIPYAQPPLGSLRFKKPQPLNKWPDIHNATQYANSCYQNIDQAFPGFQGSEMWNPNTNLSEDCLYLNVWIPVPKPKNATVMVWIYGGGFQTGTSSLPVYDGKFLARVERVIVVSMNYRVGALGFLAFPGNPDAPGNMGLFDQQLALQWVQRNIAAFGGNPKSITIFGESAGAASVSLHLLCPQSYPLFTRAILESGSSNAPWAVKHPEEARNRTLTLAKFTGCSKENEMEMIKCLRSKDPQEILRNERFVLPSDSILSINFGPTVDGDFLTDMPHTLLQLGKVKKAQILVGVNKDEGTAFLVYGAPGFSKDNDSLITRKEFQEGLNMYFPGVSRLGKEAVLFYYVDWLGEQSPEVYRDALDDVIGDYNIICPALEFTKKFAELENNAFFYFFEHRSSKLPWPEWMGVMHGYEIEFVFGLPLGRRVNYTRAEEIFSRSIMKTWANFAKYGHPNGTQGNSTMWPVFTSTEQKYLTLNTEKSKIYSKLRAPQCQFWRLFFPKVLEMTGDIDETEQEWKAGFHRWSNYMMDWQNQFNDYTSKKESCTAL
ASSAY VALUE: 6.16

MOLECULE: C=CCN1CCC(CCC(=O)c2ccc(N3CCN(CCCCc4c[nH]c5ccc(C#N)cc45)CC3)cc2)CC1
TEST SYSTEM: Cholinesterase (Mus musculus)
ASSAY VALUE: 5.78

MOLECULE: N#Cc1ccc2[nH]cc(CCCCN3CCN(c4ccc(C(=O)CCC5CCN(Cc6cccc(F)c6)CC5)cc4)CC3)c2c1
TEST SYSTEM: Cholinesterase (Mus musculus)
ASSAY VALUE: 4.95

MOLECULE: N#Cc1ccc2[nH]cc(CCN3CCN(c4ccc(C(=O)CCC5CCN(Cc6ccoc6)CC5)cc4)CC3)c2c1
TEST SYSTEM: Cholinesterase (Mus musculus)
ASSAY VALUE: 5.55

MOLECULE: N#Cc1ccc2[nH]cc(CCN3CCN(c4ccc(C(=O)CCC5CCN(Cc6cc[nH]c6)CC5)cc4)CC3)c2c1
TEST SYSTEM: Cholinesterase (Mus musculus)
ASSAY VALUE: 5.45

I need pIC50 for every entry listed below, if you could help.
1. N#Cc1ccc2[nH]cc(CN3CCN(c4ccc5c(c4)CC(CC4CCN(Cc6ccccc6)CC4)C5=O)CC3)c2c1 (stereo not given)
2. N#Cc1ccc2[nH]cc(CCCN3CCN(c4ccc(C(=O)CCC5CCN(Cc6cccnc6)CC5)cc4)CC3)c2c1
3. O=C(CCC1CCN(Cc2ccccc2)CC1)c1ccc(N2CCN(CCCCc3c[nH]c4ccc(Br)cc34)CC2)cc1

**Result**
1: 6.30; 2: 5.70; 3: 5.42

Provide each entry's pIC50 from the list below.
1. N#Cc1ccc2[nH]cc(CCCCN3CCN(c4ccc(C(=O)CCC5CCN(Cc6cc[nH]c6)CC5)cc4)CC3)c2c1
2. N#Cc1ccc2c(CCCCN3CCN(c4ccc(C(=O)CCC5CCN(Cc6ccccc6)CC5)cc4)CC3)c[nH]c2c1

**Result**
1. 5.70
2. 5.58

====

# TEST SYSTEM: Cholinesterase (Mus musculus)
What pIC50 was measured for each of the following?
Give bare numbers, as −log10 of the molar value.

Below are worked cases with known answers.
STRUCTURE STRING: N#Cc1ccc2[nH]cc(CCCCN3CCN(c4ccc(C(=O)CCC5CCN(Cc6ccc(F)cc6)CC5)cc4)CC3)c2c1
pIC50: 5.57

STRUCTURE STRING: N#Cc1ccc2[nH]cc(CN3CCN(c4ccc(C(=O)CCC5CCN(Cc6cccnc6)CC5)cc4)CC3)c2c1
pIC50: 5.23

STRUCTURE STRING: N#Cc1ccc2[nH]cc(CCCCN3CCN(c4ccc(C(=O)CCC5CCN(CC6CCC6)CC5)cc4)CC3)c2c1
pIC50: 5.88

STRUCTURE STRING: N#Cc1ccc2[nH]cc(CCCCN3CCN(c4ccc(C(=O)CCC5CCN(Cc6ccccc6F)CC5)cc4)CC3)c2c1
pIC50: 5.60

STRUCTURE STRING: N#Cc1ccc2[nH]cc(CCCCN3CCN(c4ccc5c(c4)C/C(=C\C4CCN(Cc6ccccc6)CC4)C5=O)CC3)c2c1
pIC50: 5.31

For each entry beneath this line, provide reported pIC50.
1. N#Cc1ccc2[nH]cc(CN3CCN(c4ccc(C(=O)CCC5CCN(Cc6ccoc6)CC5)cc4)CC3)c2c1
2. N#Cc1ccc2[nH]cc(CN3CCN(c4ccc(C(=O)CCC5CCN(Cc6cc[nH]c6)CC5)cc4)CC3)c2c1
3. N#Cc1ccc2[nH]cc(CCCCN3CCN(c4ccc(C(=O)CCC5CCN(Cc6ccccc6)CC5)cc4)CC3)c2c1

**Result**
1: 5.85; 2: 5.94; 3: 5.66
